# tested.on: tyrosinase (Mus musculus)
# Construct: the supernatant obtained constitutes the cell lysate used as tyrosinase source in the enzymatic assay; endogenous in cells; detergent/ultrasound lysate supernatant
# Sequence (P11344 19-533): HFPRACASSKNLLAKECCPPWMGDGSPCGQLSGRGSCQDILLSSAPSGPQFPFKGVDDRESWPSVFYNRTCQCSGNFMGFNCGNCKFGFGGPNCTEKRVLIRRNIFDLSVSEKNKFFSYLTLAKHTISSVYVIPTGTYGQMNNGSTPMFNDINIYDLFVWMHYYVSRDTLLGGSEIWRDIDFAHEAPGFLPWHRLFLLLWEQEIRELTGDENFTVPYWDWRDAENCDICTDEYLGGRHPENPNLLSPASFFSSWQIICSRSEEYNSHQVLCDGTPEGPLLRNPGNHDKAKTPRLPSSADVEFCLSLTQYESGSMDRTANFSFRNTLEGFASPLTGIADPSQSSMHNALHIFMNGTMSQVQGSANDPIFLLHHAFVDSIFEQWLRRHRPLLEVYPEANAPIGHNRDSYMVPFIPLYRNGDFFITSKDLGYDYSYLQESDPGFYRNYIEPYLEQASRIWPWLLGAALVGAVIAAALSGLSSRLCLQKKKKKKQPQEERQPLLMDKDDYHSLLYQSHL
# assay.protocol: Tyrosinase activity inhibition assay (B16F1 cell lysate, L-tyrosine substrate, MBTH, absorbance at 520 nm)
# applied.conditions: lysate of B16F1 cells (murine melanoma line) as tyrosinase source; 37° C., reading at 520 nm after 6 hours; read-out: Tyrosine hydroxylase/Dopa oxidase IC50
# Method: The activity of the inhibitors is measured starting from a lysate of B16F1 cells (murine melanoma line). […] The B16F1 cells are cultured in DMEM medium+10% foetal calf serum+10^−9 M α-MSH for 4 days at 37° C. under 7% CO2. They are treated with trypsin, washed with PBS, counted and pelleted. […] The plate is incubated at 37° C. and a spectrophotometric reading is carried out at 520 nm after incubating for 6 hours. […]
Kindly state IC50 for each of the entries shown.
API: value field is a number in µM; no unit string.

Return IC50 measured with tyrosinase (Mus musculus) given this compound: FC(F)Oc1ccc(-c2c[nH]c(=S)[nH]2)cc1
0.4

Check O=C(O)c1ccc(-c2c[nH]c(=S)[nH]2)cc1 too.
0.2

Check COc1cccc(-c2c[nH]c(=S)[nH]2)c1 too.
1.4

Check OCc1ccc(-c2c[nH]c(=S)[nH]2)cc1 too.
0.3
